Cited source for all entries: patent US7026443

- SYSTEM: HLA-A*1101 (human)
- ASSAY_NAME: competition with 125I-labelled standard peptide for purified HLA, gel filtration
Assignment: determine reported binding affinity ratio (IC50 of standard peptide / IC50 of test peptide) for the given binders.
One number for each entry.

Guide cases for binding affinity ratio (IC50 of standard peptide / IC50 of test peptide), answers given:
[[record]]
binder = "EVYDFAFR (modifications not checked) [HPV16 E6 peptide EVYDFAFR]"
meas_value = 0.0025

[[record]]
binder = "TTLEQQYNK (modifications not checked)"
meas_value = 0.29

[[record]]
binder = "GTTLEQQYNK (modifications not checked)"
meas_value = 0.07


Below are some binders; for each one, tell me its binding affinity ratio (IC50 of standard peptide / IC50 of test peptide).
1. WTGRCMSCCR (modifications not checked)
2. CVYCKQQLLR (modifications not checked)
3. NIRGRWTGR (modifications not checked)
4. PLCPEEKQR (modifications not checked)

Output:
[0.0008, 0.0005, 0.0005, 0.0005]
